Cited source for all entries: the Human Domainome abundance scans (Beltran et al. 2025)

B1: Zinc finger MYM-type protein 3, residues 405 to 444; numbered along this chain, Q14202 (parent)
chain: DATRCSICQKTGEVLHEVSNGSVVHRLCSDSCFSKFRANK

# Variants of: B1
# method.summary: abundance fitness (aPCA) (normalised: wild type 0, dead -1); higher = more abundant; growth selection in yeast, the domain comes from the species named
# settings: Homo sapiens
So basically: abundance fitness at -0.4 or higher? That is label 1. Lower than -0.4? That is label 0.

Worked cases, answers included:
change	class.assignment
K10A	label 1
E17L	label 0
V23W	label 0
N39E	label 1
S31Q	label 1
E17I	label 0
K10M	label 1
R37Q	label 1

Request: abundance fitness >= -0.4 for A38S ?
Result: label 1

Request: abundance fitness >= -0.4 for Q9G ?
Result: label 1
